Test system: muscle progenitors derived from DMD hiPSC
Experiment: Myotube assay: total myotube area per well (alpha-actinin staining)
Format: cell-based, human
Details: Homo sapiens, Myotube, 72 h, myogenic activity, half-maximal generation of myotubes; 10 points dose-response 1.5 nM to 30 µM; 3 days; DMD or WT cell source not given
pEC50: −log10 of the molar value.
QUANTITY MEASURED: pEC50

CSc1cc(Oc2ccnc3c2CCCN3)ccc1NC(=O)Nc1cc(C(C)(C)C)nn1-c1ccccc1 : 5.30 to 6.00
CSc1cc(Oc2ccnc3[nH]c(=O)cnc23)ccc1NC(=O)Nc1cc(C(C)(C)C)nn1-c1ccc(Cl)cc1 : ≤ 5.30
CSc1cc(Oc2ccnc3[nH]c(=O)cnc23)ccc1NC(=O)Nc1cc(C(C)(C)C)nn1-c1ccc2ncccc2c1 : > 6.30
CSc1cc(Oc2ccnc3c2ncc(=O)n3C)ccc1NC(=O)Nc1cc(C(C)(C)C)nn1-c1ccccc1 : ≤ 5.30
CC(C)(C)c1cc(NC(=O)Nc2ccc(Oc3ccnc4[nH]c(=O)cnc34)cc2Cl)n(-c2ccccc2)n1 : ≤ 5.30
CSc1cc(Oc2ccncc2)ccc1NC(=O)Nc1cc(C(C)(C)C)nn1-c1ccccc1 : ≤ 5.30
CC(C)(C)c1cc(NC(=O)Nc2ccc(Oc3ccnc4[nH]c(=O)cnc34)c(OC(F)(F)F)c2)n(-c2ccccc2)n1 : 6.00 to 6.30
